meta.source: paper PMC6038053

- EXPERIMENTAL TARGET: T1, lysostaphin cell wall targeting (CWT) domain (residues 402-493) (Staphylococcus simulans, UniProt P10547 402-493)
- T1 construct: also called targeting domain; SH3b domain; source: E. coli BL21 (DE3), purified (Glutathione Sepharose, thrombin release, gel filtration on Superdex 75)
- T1 sequence (P10547 402-493): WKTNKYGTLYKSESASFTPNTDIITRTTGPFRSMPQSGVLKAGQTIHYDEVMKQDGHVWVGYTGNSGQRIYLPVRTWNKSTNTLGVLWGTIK
- TEST: NMR titration; 1H,15N and 1H,13C HSQC spectra of the CWT domain with and without ~170 molar excess of hexapeptide; chemical shift perturbations; protein to zinc 1:1
- COND: both partners purified
pKd: −log10 of the molar value.
MEASUREMENT KIND: pKd

q: Recorded pKd for GGGGGK (also called G5K; source: bought: Sigma-Aldrich) [GGGGGK hexapeptide] , please?
a: < 2.00
